Dmax values by entry
- assayed target: UniProt Q9H8M2
- Sequence (Q9H8M2 1-597): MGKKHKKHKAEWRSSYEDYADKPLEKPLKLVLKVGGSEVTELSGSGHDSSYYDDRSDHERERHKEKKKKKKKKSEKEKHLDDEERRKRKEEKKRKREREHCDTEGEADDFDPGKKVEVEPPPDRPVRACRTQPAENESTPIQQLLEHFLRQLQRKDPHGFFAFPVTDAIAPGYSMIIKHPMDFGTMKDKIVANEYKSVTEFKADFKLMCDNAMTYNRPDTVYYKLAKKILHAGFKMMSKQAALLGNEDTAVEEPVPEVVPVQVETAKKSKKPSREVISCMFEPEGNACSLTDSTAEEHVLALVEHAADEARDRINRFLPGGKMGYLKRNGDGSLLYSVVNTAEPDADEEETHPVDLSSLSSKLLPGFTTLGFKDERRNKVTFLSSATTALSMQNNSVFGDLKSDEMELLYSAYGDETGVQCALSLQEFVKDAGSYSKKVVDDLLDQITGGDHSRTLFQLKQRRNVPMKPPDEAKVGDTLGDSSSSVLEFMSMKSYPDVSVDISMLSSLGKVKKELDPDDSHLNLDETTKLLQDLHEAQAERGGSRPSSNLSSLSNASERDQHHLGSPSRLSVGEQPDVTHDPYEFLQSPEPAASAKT
- experiment summary: BRD9 degradation, HiBiT-BRD9 KI HEK293 (LgBiT) cells, NanoGlo Lytic Endpoint assay (Assay Protocol 1)
- Type: cell-based
- recorded conditions: HEK293; Table 5; assay protocol 1; read-out: BRD9 Dmax (%)

Check out these entries, answers already filled in.
| compound | Dmax |
| --- | --- |
| COc1cc(-c2cn(C)c(=O)c(C)c2C)cc(OC)c1CN1CCN(C(=O)/C(C#N)=C/c2cccc(Br)n2)CC1 [BRD9h] | > 75% |
| COc1cc(-c2cn(C)c(=O)c(C)c2C)cc(OC)c1CN1C2CC1CN(C(=O)/C(C#N)=C/c1cccc(Br)n1)C2 (mixture of isomers) [BRD9o] | > 75% |

Now take the following compound into account.
Lookup: Which Dmax is listed for COc1cc(-c2cn(C)c(=O)c(C)c2C)cc(OC)c1CN(C)C1CCN(C(=O)/C(C#N)=C/C(C)(C)C)CC1 [BRD9d] ?
Found: 70 to 75%

---

Dmax values by entry
- assayed target: BRD9 (Homo sapiens, UniProt Q9H8M2)
- experiment summary: Degradation of BRD9 (IF), immunofluorescence in MV4-11 cells, 24 hours (Assay Protocol 2)
- Type: cell-based
- Parameters: A suspension of MV4-11 cells (ATCC CRL-9591) was prepared; host or cells: MV4-11
- recorded conditions: MV4-11, 24 h, Table 2; BRD9 degradation (IF), Assay Protocol 2, MV4-11 cells; read-out: Assay 2 DCmax

Check out these entries, answers already filled in.
| compound | reported value |
| --- | --- |
| COc1cc(-c2cn(C)c(=O)c(C)c2C)cc(OC)c1CN1CCN(Cc2cccc3c2CCN(C(=O)/C(C#N)=C/C(C)C)C3C)CC1 (mixture of isomers) | 40 to 70% |
| COc1cc(-c2cn(C)c(=O)c(C)c2C)cc(OC)c1CN1CCC(Oc2cccc3c2CCN(C(=O)/C(C#N)=C/c2cccc(Br)n2)C3C)CC1 (mixture of isomers) | 40 to 70% |

Lookup: Which Dmax is listed for COc1cc(-c2cn(C)c(=O)c3cnccc23)cc(OC)c1CN1CCN(Cc2cccc3c2CCN(C(=O)/C(C#N)=C\c2ncc(C)s2)C3C)CC1 (mixture of isomers) ?
Found: 40 to 70%
